Source: patent US7528259B2

# test_system: CK2 (Rattus norvegicus)
# Construct: Native CK1 (nCK1) and CK2 (nCK2) were purified from rat liver; from tissue; host or cells: rat liver
# protocol_details: CK2 phosphorylation assay, kinetic determination of inhibition constant
# Type: biochemical
# stated_conditions: CK2; competitive with respect of ATP; read-out: Inhibition constant Ki
property_measured: Ki (nM)

These recorded examples may help you get a feel for the data.
molecule | number
Nc1nc2c(Br)c(Br)c(Br)c(Br)c2[nH]1 [2-amino-4,5,6,7-tetrabromobenzimidazole, reference compound] | 90
CNc1nc2c(Br)c(Br)c(Br)c(Br)c2[nH]1 | 90
CC(O)CNc1nc2c(Br)c(Br)c(Br)c(Br)c2[nH]1 (centres unmarked) | 140

I = CC(C)Nc1nc2c(Br)c(Br)c(Br)c(Br)c2[nH]1
II = OCCNc1nc2c(Br)c(Br)c(Br)c(Br)c2[nH]1
Exam item: Param metric = Ki; output whichever of I , II has the minimum value. Indicate which entry you chose by stating its label.
Marked response: I

---

# test_system: CK2 (Rattus norvegicus, UniProt P19139)
# Construct: Native CK1 (nCK1) and CK2 (nCK2) were purified from rat liver; from tissue; host or cells: rat liver
# Sequence (P19139 whole entry): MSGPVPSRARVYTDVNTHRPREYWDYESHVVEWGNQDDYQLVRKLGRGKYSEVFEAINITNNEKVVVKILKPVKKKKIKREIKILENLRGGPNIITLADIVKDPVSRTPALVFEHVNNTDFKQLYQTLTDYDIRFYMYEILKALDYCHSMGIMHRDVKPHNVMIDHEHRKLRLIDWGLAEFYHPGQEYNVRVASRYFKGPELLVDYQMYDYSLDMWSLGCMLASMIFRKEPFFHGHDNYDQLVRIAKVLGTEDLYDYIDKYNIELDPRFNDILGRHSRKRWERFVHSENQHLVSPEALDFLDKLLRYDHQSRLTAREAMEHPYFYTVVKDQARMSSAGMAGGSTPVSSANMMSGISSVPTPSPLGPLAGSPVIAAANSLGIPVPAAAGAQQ
# Sequence (P67874 2-215 partner limits assumed): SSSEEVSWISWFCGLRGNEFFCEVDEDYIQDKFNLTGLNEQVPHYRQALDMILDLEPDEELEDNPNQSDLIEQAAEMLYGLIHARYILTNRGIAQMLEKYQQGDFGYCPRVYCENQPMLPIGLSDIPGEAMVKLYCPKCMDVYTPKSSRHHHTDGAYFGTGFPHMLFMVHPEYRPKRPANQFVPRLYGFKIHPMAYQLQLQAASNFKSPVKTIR
# protocol_details: CK2 phosphorylation assay, kinetic determination of inhibition constant
# Assay type: biochemical
property_measured: pKi
pKi (log units): -log10 of the concentration in mol/L.

Exam item: Provide CK2 (Rattus norvegicus, UniProt P19139) pKi reading for `CN(C)CCNc1nc2c(Br)c(Br)c(Br)c(Br)c2[nH]1` .
Marked response: 6.80

---

property_measured: melting point

These recorded examples may help you get a feel for the data.
molecule | result
CC(C)Nc1nc2c(Br)c(Br)c(Br)c(Br)c2[nH]1 | 288 to 290 °C (dec.)
OCCNc1nc2c(Br)c(Br)c(Br)c(Br)c2[nH]1 | 216 to 218 °C
CNc1nc2c(Br)c(Br)c(Br)c(Br)c2[nH]1 | 283 to 285 °C
CC(O)CNc1nc2c(Br)c(Br)c(Br)c(Br)c2[nH]1 (centres unmarked) | 258 to 260 °C

Exam item: Identify melting point associated with the molecule `CN(C)CCNc1nc2c(Br)c(Br)c(Br)c(Br)c2[nH]1`
Marked response: > 250 °C (dec.)
